These entries and their values trace back to the supplement of paper PMC9233669.

- System: biotinyl-Trp-oxazolone
- METHOD_DESCRIPTION: self-aminoacylation, catalytic enhancement (BWO) (fold over background); higher = more active; k-Seq, kA / k0A0; sequences stand for … in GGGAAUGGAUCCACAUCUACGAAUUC…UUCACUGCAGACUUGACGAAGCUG
This sample holds only a part of the variants without activity.
QUANTITY_NAME: self-aminoacylation

• CUACUUCAAACAAUCGGACUC [Fam1A.1 aminoacylation ribozyme variant] = 2.57
• AAGUUUGCUAAGAGUCGCAUG [Fam3.1 aminoacylation ribozyme variant] = 1.69
• CUACUUCAAACAACCGGGCUG [Fam1A.1 aminoacylation ribozyme variant] = 0.852
• CCACACUUGAAGCGAUCGGUC [Fam1B.1 aminoacylation ribozyme variant] = 0.952
• AUUCACCUAGGUAAUCAGGUG [Fam2.2 aminoacylation ribozyme variant] = 0.933
• AUUGCCCUGGUAAUCGAGUGA [Fam2.1 aminoacylation ribozyme variant] = 9.18
• UCACAUUUCAAGCAAUCGGUC [Fam1B.1 aminoacylation ribozyme variant] = 1.56
• AUUCGCCUAGGUCAUCGGGUU [Fam2.2 aminoacylation ribozyme variant] = 10.8
